All figures here come from the supplement of paper PMC9170038.

Measured apparent KD of MS2 coat protein accompanies every entry in the list below.
tested on: MS2 coat protein; assay: apparent KD of MS2 coat protein; higher = weaker reporter binding; settings: Eterna round: R107; input ligand: theophylline 2 mM
reported-property: apparent KD of MS2 coat protein

sequence_entry="UCGCUCUGGGUGGGAUCCGGAGAUGUGGAAGGAGCGCUGGAAACAGCAGGUAGGUCGCCAACGGACAUGAGGAUCACCCAUGUAC [Same State - Arginine A (Freestyle 18)]" reported_property="apparent KD of MS2 coat protein" value_measured="37.7 nM"
sequence_entry="GCUAGGUCUACGGCCGCCACUAGACAUGGGUAAGACAUGAGGAUCACCCAUGUACUACGAGUGCAUAGGACCGGGUAGACCUAGC [SSTB NP+V+V2 #19 +-Same Structure]" reported_property="apparent KD of MS2 coat protein" value_measured="516 nM"
sequence_entry="AUGUUGGUCUGAAGGAGCGCGAUAACAUGAGGAUCACCCAUGUUAAAUGGUACAUGAUACUCGCAGGUAGGUCGCAGUACGACAA [Same State Arginine B GF 13]" reported_property="apparent KD of MS2 coat protein" value_measured="32.2 nM"
sequence_entry="GCCGGUACGUCGGCAAAGCCGAUGUGCCAGCGAGGACCGGUACGGCCGCCACUCGUACAUGAGGAUCACCCAUGUCCGGUCCGGC [Omei Trp SS A C v1]" reported_property="apparent KD of MS2 coat protein" value_measured="71.8 nM"
sequence_entry="GAGUUGUGCUCAGGCCCGACUCGCUGAGAAGGAGCGCACUAAGGUGCAGGUAGGUCGCUCAGGAAUACAUGAGGAUCACCCAUGU [Erlaatti]" reported_property="apparent KD of MS2 coat protein" value_measured="28.5 nM"
sequence_entry="UUAAUCUAUAAUGAAAACAUUAUAGCAGAAGGAGCGUGAUAAAACACAGGUAGGUCGCUGAAGGGAACAUGAGGAUCACCCAUGU [AstrosSSArgA#12]" reported_property="apparent KD of MS2 coat protein" value_measured="39.4 nM"

----------
test system: MS2 coat protein; assay: apparent KD of MS2 coat protein; designed switch direction (-1 OFF switch, 1 ON switch): 1; higher = weaker reporter binding; conditions: input ligand: microRNA oligo, concentration not stated
reported-property: apparent KD of MS2 coat protein

sequence_entry="GUGGUCAGACAUGAGGAUCACCCAUGUGGAAUAAAUAAGGAGAAGGAUAUGGAAUAUAGGAUAUACCAGAAGGUUUGGUUGGUG (Eterna round: R96, puzzle: Same State NG 3)" value_measured="0.0905 µM"
sequence_entry="AGCCUGAGUCGAGGAUAUUAUGGAUCAAUUAAUACAUGAGGAUCACCCAUGUAAUUAAUUUAACAUGAGAAGGCGACUCAGGCA [SSNG2/10-A1] (Eterna round: R96, puzzle: Same State NG 2)" value_measured="0.00543 µM"
sequence_entry="GAGAGAGGGUGAGGAUAUAGAGUAAUAAUGAUACUAGAAGGCACAGACAUGAGGAUCACCCAUGUGGGAAUAAUCCAGAGAGAG [Parity 5 - Jieux - Same State NG 1] (Eterna round: R96, puzzle: Same State NG 1)" value_measured="0.259 µM"
sequence_entry="GCUCGACGUAUGGCCUACAUGAGGAUCACCCAUGUGACUGGGCAGGAUAUCUAGAUGCAGAAUGUAGAGAAGGGCCCGUCGAGC [SameState NG3 #48] (Eterna round: R96, puzzle: Same State NG 3)" value_measured="0.074 µM"
sequence_entry="CGAAGUCGUAGAGGAUAUGGGUGGCCGGAGUCAACAUGAGGAUCACCCAUGUGCUAAUAUGAGAUCCAGAAGGCUGCGAACGGG [Eternabot solution 16] (Eterna round: R96, puzzle: Same State NG 2)" value_measured="0.0314 µM"

----------
system: MS2 coat protein; assay: apparent KD of MS2 coat protein; designed switch direction (-1 OFF switch, 1 ON switch): -1; higher = weaker reporter binding; conditions: Eterna round: R95; input ligand: microRNA oligo, concentration not stated
Binary call on apparent KD of MS2 coat protein: 1 from 100 nM upward, -1 beneath that.

sequence_entry="GUUAAGGUAGGAUAUACGAUAAUAUAGGGUAGAUAUAUAACACAUGAGGAUCACCCAUGUAGAAGGACCAAUUG [Mat - Exclusion 2 - Mod of my Tesla design - D53] (puzzle: Exclusion 2)" label_class=-1
sequence_entry="UUUGAAUAAGUGAGGAUAUACUGUUAGUAAUGAUUGUAGAAGGUACAUGAGGAUCACCCAUGUUUAUUAUUUAU [JR_BME4_Sub039] (puzzle: Brourd's mod of Exclusion 4)" label_class=-1
sequence_entry="CCAGCGUAUGUGAGGAUAUGCUGGUCCUUGGAUCAGCAGAAGGCACAUGAGGAUCACCCAUGUGGUGUCGUUGG [JL bmx4 3.45] (puzzle: Brourd's mod of Exclusion 4)" label_class=1
sequence_entry="AAUAAGUGAGGAUAUACUAAAAUAUGAAUAAAAUAAAUAAAACAUGAGGAUCACCCAUGUAGAAGGCACAAUAA [JMF's Not so obvious solution 5] (puzzle: Exclusion 2)" label_class=-1
sequence_entry="GGUGGACAUGAGGAUCACCCAUGUGAGGAUAUCGGCUAUCUACUCGCUGUCGGUUGCUCGAGAAGGCACAUUGU [Exclusion 1 V93] (puzzle: Exclusion 1)" label_class=1

----------
Measured apparent KD of MS2 coat protein accompanies every entry in the list below.
tested on: MS2 coat protein; assay: apparent KD of MS2 coat protein; designed switch direction (-1 OFF switch, 1 ON switch): -1; higher = weaker reporter binding; details: Eterna round: R95; input ligand: microRNA oligo, concentration not stated
reported-property: apparent KD of MS2 coat protein (nM)

sequence_entry="UUUAAUUUUUUUUUUUUACAAGCUUUUUGCUCGUCUUAUACAUGAGGAUCACCCAUGUGAAUGGAAGGUAAAUUAUC [JMF 68] (puzzle: Sensor v3, turn-off variant 2)" value_measured=18.4
sequence_entry="GCAGGAUAAGUGAGGAUAUACCUCUGGAUACAGAGGUAGAAGGUACAUGAGGAUCACCCAUGUCUAUAACCUGC [Fiskers BMX 4 - 80] (puzzle: Brourd's mod of Exclusion 4)" value_measured=12.9
sequence_entry="CUUUUUUUUGUGAGGAUAUACUGUUAUUAAAGUUAGUAGAAGGUACAUGAGGAUCACCCAUGUUAAUUACUUUA [JR_BME4_Sub050] (puzzle: Brourd's mod of Exclusion 4)" value_measured=12.9
sequence_entry="CUUUUGUGAGGAUAUUAGUAGUAAAUUAAUAAAAUUACUACUGAGAAGGCACAUGAGGAUCACCCAUGUUCCUC [salish99_ex4_r3_054] (puzzle: Exclusion 4)" value_measured=39.7
sequence_entry="UGAUCUUUUGUUAGGAUAUGCUGGGUUUUUUCUCAGCAGAAGGGACAUGAGGAUCACCCAUGUUUUGUCAUAAA [Magic-07] (puzzle: Brourd's mod of Exclusion 4)" value_measured=20.3

----------
test system: MS2 coat protein; test: apparent KD of MS2 coat protein; designed switch direction (-1 OFF switch, 1 ON switch): -1; higher = weaker reporter binding; details: Eterna round: R95; input ligand: FMN 200 uM
reported-property: apparent KD of MS2 coat protein (µM)

sequence_entry="AUAAGCUUUGAUAUCCUUAACAUGAGGAUCACCCAUGUUCGUCUUAUGAUGGUCUGAUCCCUGAGGAUCGGACCGUU [JL-sv1-2.06 Brourd Mod] (puzzle: Sensor v3, turn-off variant 1)" value_measured=0.0344
sequence_entry="UUAUACGUUGAGGAUAUGCGAUUUAGUAUAGUUGCAGAAGGCGAUACAUGAGGAUCACCCAUGUUUAUGGGCAU [LRO-Ex6-07] (puzzle: Exclusion 6)" value_measured=0.394
sequence_entry="CUGAGCAGACGGAGAUCCAACAUGAGGAUCACCCAUGUCUCAAAAGCUUCUUGCUCGUCUUAUCCUCCUCUGUUCUC [Maeronqu] (puzzle: Sensor v3, turn-off variant 1)" value_measured=0.0368
sequence_entry="AAAGUUCGAGGAUAUCUACUUAGCUACAUGAGGAUCACCCAUGUUAUCCUCCCGCUGGGAAGAGAAGGCGGUUAAA [Xeonceso] (puzzle: Exclusion 5)" value_measured=0.186
sequence_entry="CACAAGCUUUUUUGUUGCUUUUUAGUUGGUGUGUGAUUUACAUGAGGAUCACCCAUGUUAUUGAUGCUCGAUCUUUU [JR_SV3TOV2_Sub082] (puzzle: Sensor v3, turn-off variant 2)" value_measured=0.0711

----------
system: MS2 coat protein; test: apparent KD of MS2 coat protein; designed switch direction (-1 OFF switch, 1 ON switch): -1; higher = weaker reporter binding; conditions: input ligand: microRNA oligo, concentration not stated
Binary call on apparent KD of MS2 coat protein: 1 (yes) from 0.03 µM upward, 0 (no) beneath that.

sequence_entry="UCUAACCAUGUAGGAUAUGCGUGGCUAAGCUAUGCAGAAGGACAUGAGGAUCACCCAUGUGCCUCCGUCUGCGUACAGUCGGCU [EXclNG1-LROPPY01] (Eterna round: R96, puzzle: Exclusion NG 1)" label_class="0 (no)"
sequence_entry="ACAUGAGGAUCACCCAUGUCCGGCUGGUCUGUCUCGGCUGUCGAGGAUAUAGCACGGUAUCCGCGCUAGAAGGCGGGAGCCGGC [Aenatbe mod 89] (Eterna round: R96, puzzle: Exclusion NG 3)" label_class="1 (yes)"
sequence_entry="GCACGAAGUGUAGGAUAUCUGUGCGAUUAGCUCAGAGAAGGACACAUGAGGAUCACCCAUGUGUUCCGCGGAAGCAAAACGUGC [Eli exng1 - 056] (Eterna round: R96, puzzle: Exclusion NG 1)" label_class="0 (no)"
sequence_entry="AAACCUAGUCUAGGAUAUGGUGAGAGUUUGUCGGUGAGUACAUGAGGAUCACCCAUGUACGCUUGCUAGAAGGAGACAGGCUCG [Eternabot solution 37] (Eterna round: R96, puzzle: Exclusion NG 2)" label_class="0 (no)"
